From: PubChem BioAssay (NCI)

- Test system: COLO 205 colon
- Procedure Summary: NCI-60 one-dose screen, 48 h (100 = growth as untreated, 0 = no growth, -100 = all killed)
- Assay Setup: 10 µM unless noted
About 83,000 compounds went through this panel and 20% of them were active in at least one assay; those are over-represented in the sample as a whole.
Reported growth values for a set of compounds
Observable: growth (%)

>>> value_measured("COc1nc2c(cc1S(=O)(=O)c1ccccc1)CCc1c-2cnn1-c1ccc(Cl)cc1")
118
>>> value_measured("CC/C(=C(\\c1ccc(O)cc1)c1ccc(OCCN(C)CCN(C)C(=O)CCCCC(=O)c2c(C)[nH]c(/C=C3\\N=C(c4ccc[nH]4)C=C3OC)c2C)cc1)c1ccccc1")
91.3
>>> value_measured("O=C(Nc1cccc2[nH]c(C(F)(F)F)nc12)c1ccc(Br)cc1F")
26
>>> value_measured("O=c1c2cccc3c(Nc4c(F)cccc4F)ccc(c32)c2nc3ccccc3n12")
84.9
>>> value_measured("COCCCNc1nc(NC(=O)c2ccc(F)cc2C)cc(-c2cccnc2)n1")
111
>>> value_measured("Cc1cc(Cl)ccc1Nc1nc(C(F)(F)F)ccc1C(=O)N/N=C/c1ccc(F)cc1")
13.9
>>> value_measured("COc1cc(/C=N\\NC(=O)CN2CCN(c3cc4c(cc3F)c(=O)c(C(=O)N/N=C/c3ccc(O)c(OC)c3)cn4C3CC3)CC2)ccc1O")
-9.77
>>> value_measured("CCN(CC)CC(O)CNc1c2ccc([N+](=O)[O-])cc2nc2cc(OC)c(OC)cc12 (stereo not drawn)")
-71
>>> value_measured("COc1ccc(C2Nc3ccccc3-n3cccc32)cc1 (stereo not drawn)")
126
>>> value_measured("Cc1[nH]n(-c2ccccc2)c2nc3nncc3c(-c3ccc(Cl)cc3)c12")
111
>>> value_measured("Fc1ccc(Cc2ccc(F)cc2)cc1")
108
>>> value_measured("Cc1ccc2c(NCCCN(C)C)c3c(C)nn(C)c3nc2c1")
13.4
>>> value_measured("COc1cccc(-c2nc3sccn3c2-c2ccnc(NCCCNS(=O)(=O)c3ccc(Cl)cc3)c2)c1")
44.9
>>> value_measured("O=C(O)c1cn(C2CC2)c2cc(N3CCN(Cc4nc5c(cnn5-c5ccc([N+](=O)[O-])cc5)c(=O)[nH]4)CC3)c(F)cc2c1=O")
112
>>> value_measured("COc1ccc(CCN2CCCn3c2nc2ccccc2c3=O)cc1")
-10.2
>>> value_measured("CCCCN(CC)CCCCCCCCCCN1CCCc2cc(OC)ccc21")
83.4
>>> value_measured("C=C1C(=O)O[C@H]2[C@H]1CC/C(Cn1cc(Cn3ccc4cc(Cl)ccc43)nn1)=C\\CC[C@@]1(C)O[C@@H]21")
-82.3
>>> value_measured("CC[C@]12C=CCN3CC[C@@]4(c5ccc(OC)cc5N(C)[C@H]4[C@@](O)(C(=O)OC)[C@@H]1OC(=O)CCC(=O)N[C@@H](Cc1c[nH]c4ccccc14)C(=O)OC)[C@@H]32")
98.8

----------
- Test system: M14 melanoma
- Procedure Summary: NCI-60 one-dose screen, 48 h (100 = growth as untreated, 0 = no growth, -100 = all killed)
- Assay Setup: 10 µM unless noted
Compounds without any hit were thinned out: in the full panel of roughly 83,000, 20% have a hit.
Observable: growth (%)

>>> value_measured("Cc1ccc2cnc(N)c(C#Cc3cncc(C(=O)Nc4ccc(CN5CCN(C)CC5)c(C(F)(F)F)c4)c3)c2c1")
-62.2
>>> value_measured("O=[N+]([O-])c1cccc(-c2nc3sccn3c2-c2ccnc(NCCCNS(=O)(=O)c3cccc(F)c3)n2)c1")
-1.16
>>> value_measured("O=C(CN1CCN(c2cc3c(cc2F)c(=O)c(C(=O)O)cn3C2CC2)CC1)Nc1cc(=O)[nH]c(=O)[nH]1")
89.2
>>> value_measured("C[C@@H]1CCC2=C(CCC[C@]2(C)C(=O)O)[C@@]1(C)CCc1ccoc1")
103
>>> value_measured("CCCCCCCCCCCCCC(=O)C(C)N (centres undefined)")
63.7
>>> value_measured("COc1ccc(Cl)cc1Nc1nc(C(F)(F)F)ccc1C(=O)N/N=C/c1cccnc1")
52.9
>>> value_measured("CC(=O)OCC(=O)C1CCC=CC1OC(C)=O (centres undefined)")
96.9
>>> value_measured("COc1ccc2nc3cc(Cl)ccc3c(N3CCN(c4ccnc(N5CCN(C)CC5)n4)CC3)c2c1")
58.5
>>> value_measured("C[C@@]1(N2C(=O)OC[C@@H]2c2ccccc2)C(=O)N([C@H](CC(=O)N2CCC(N3CCCCC3)CC2)C(=O)NCc2cccc(C(F)(F)F)c2)[C@@H]1/C=C/c1ccccc1")
-54.3
>>> value_measured("CC1=CC(=O)CC(C)(C)[C@@]1(O)/C=C/[C@@H](C)O")
102
>>> value_measured("COc1ccc2nc3cc(Cl)ccc3c(N3CCN(c4nccc(Nc5ccc(Cl)cc5)n4)CC3)c2c1")
43.4
>>> value_measured("CCN1CCN(Cc2ccc(NC(=O)Nc3nc4ccc(Oc5ccnc(C(=O)NC)c5)cc4s3)cc2C(F)(F)F)CC1")
-76.2
>>> value_measured("CN(C)c1ccc(C2Nc3ccccc3-n3cccc32)cc1 (centres undefined)")
99.1
>>> value_measured("CN1CCCCC1CCN1c2ccccc2Sc2ccc(Cl)cc21 (centres undefined)")
45.2
